Tested on: KMRC-20 (Kidney Carcinoma)
EXPERIMENT NOTES: Bliss excess, mean over the matrix (fraction); higher = more synergy
Here, each record is paired with measured Bliss excess data.

| COMPOUND | Bliss excess |
| --- | --- |
| NC1(C(=O)N[C@@H](CCO)c2ccc(Cl)cc2)CCN(c2ncnc3[nH]ccc23)CC1 [Capivasertib] + CC(=O)c1c(C)c2cnc(Nc3ccc(N4CCNCC4)cn3)nc2n(C2CCCC2)c1=O [Palbociclib] (first compound max 10 µM, 7x7, partner max 10 µM) | -0.0377 |
| COc1nnc2ccc(N3CCC(c4ccc(OCCN5CCN(C)C(=O)[C@H]5C)cc4)CC3)nn12 [AZD5153] + Cc1c2c(nn1C)CSCc1cc(n(C)n1)CSc1cc(c3ccccc3c1)OCCCc1c(C(=O)O)n(C)c3c-2c(Cl)ccc13 [AZD5991] (first compound max 1 µM, 7x7, partner max 1 µM) | -0.0135 |
| Cc1nc(Nc2ncc(C(=O)Nc3c(C)cccc3Cl)s2)cc(N2CCN(CCO)CC2)n1 [Dasatinib] + CC(=O)Nc1cccc(-n2c(=O)n(C3CC3)c(=O)c3c(Nc4ccc(I)cc4F)n(C)c(=O)c(C)c32)c1 [Trametinib] (first compound max 2 µM, 7x7, partner max 1 µM) | -0.0518 |
| Cc1cc2ncnn2cc1Nc1ncc2c(n1)n(C1CCOCC1)c(=O)n2C [AZD7648] + CN(C)CCCOc1ccc(-c2ccc3ncc4c(c3c2)n(C2CCOCC2)c(=O)n4C)cn1 [AZD0156] (first compound max 10 µM, 7x7, partner max 1 µM) | -0.0232 |

###

Tested on: EW-11 (Ewing's Sarcoma)
EXPERIMENT NOTES: Bliss excess, mean over the matrix (fraction); higher = more synergy
Mark Condition not met for Bliss excess values under -0.0009, and Condition met for everything at or above.

| COMPOUND | CATEGORY LABEL |
| --- | --- |
| O=C(c1cc(Cc2n[nH]c(=O)c3ccccc23)ccc1F)N1CCN(C(=O)C2CC2)CC1 [Olaparib] + CC1(C)CCC(CN2CCN(c3ccc(C(=O)NS(=O)(=O)c4ccc(NCC5CCOCC5)c([N+](=O)[O-])c4)c(Oc4cnc5[nH]ccc5c4)c3)CC2)=C(c2ccc(Cl)cc2)C1 [Venetoclax] (first compound max 10 µM, 7x7, partner max 1 µM) | Condition met |
| NC1(C(=O)N[C@@H](CCO)c2ccc(Cl)cc2)CCN(c2ncnc3[nH]ccc23)CC1 [Capivasertib] + Cn1cnc2c(F)c(Nc3ccc(Br)cc3Cl)c(C(=O)NOCCO)cc21 [Selumetinib] (first compound max 10 µM, 7x7, partner max 10 µM) | Condition met |
| CN(C)CCCOc1ccc(-c2ccc3ncc4c(c3c2)n(C2CCOCC2)c(=O)n4C)cn1 [AZD0156] + C[C@@H]1COCCN1C2=NC(=NC(=C2)C3(CC3)[S@](=N)(=O)C)C4=C5C=CNC5=NC=C4 [AZD6738] (first compound max 1 µM, 7x7, partner max 10 µM) | Condition not met |
| Cc1c2c(nn1C)CSCc1cc(n(C)n1)CSc1cc(c3ccccc3c1)OCCCc1c(C(=O)O)n(C)c3c-2c(Cl)ccc13 [AZD5991] + CC(=O)O[C@H]1C(=O)[C@@]2(C)[C@H]([C@H](OC(=O)c3ccccc3)[C@]3(O)C[C@H](OC(=O)[C@H](O)[C@@H](NC(=O)c4ccccc4)c4ccccc4)C(C)=C1C3(C)C)[C@]1(OC(C)=O)CO[C@@H]1C[C@@H]2O [Paclitaxel] (first compound max 1 µM, 7x7, partner max 3 µM) | Condition met |
| CC1(C)CCC(CN2CCN(c3ccc(C(=O)NS(=O)(=O)c4ccc(NCC5CCOCC5)c([N+](=O)[O-])c4)c(Oc4cnc5[nH]ccc5c4)c3)CC2)=C(c2ccc(Cl)cc2)C1 [Venetoclax] + C[C@@H]1COCCN1C2=NC(=NC(=C2)C3(CC3)[S@](=N)(=O)C)C4=C5C=CNC5=NC=C4 [AZD6738] (first compound max 1 µM, 7x7, partner max 10 µM) | Condition met |

###

The following compounds are shown together with reported combination Emax values.
Test system: OE21 (Esophageal Squamous Cell Carcinoma)
EXPERIMENT NOTES: combination Emax (second highest fraction inhibited in the dose matrix, 72 h); higher = more inhibition; extreme values may be limits of the assay
REPORTED METRIC: combination Emax

| COMPOUND | TEST VALUE |
| --- | --- |
| C=CCn1c(=O)c2cnc(Nc3ccc(N4CCN(C)CC4)cc3)nc2n1-c1cccc(C(C)(C)O)n1 [AZD1775] + C[C@@H]1COCCN1C2=NC(=NC(=C2)C3(CC3)[S@](=N)(=O)C)C4=C5C=CNC5=NC=C4 [AZD6738] (first compound max 1 µM, partner max 10 µM) | 0.746 |
| COc1cc2c(cc1OCCCCCOc1cc3c(cc1OC)C(=O)N1C=C(C)C[C@H]1C=N3)N=C[C@@H]1CC(C)=CN1C2=O [SG3199] + O=C(c1cc(Cc2n[nH]c(=O)c3ccccc23)ccc1F)N1CCN(C(=O)C2CC2)CC1 [Olaparib] (first compound max 0.001 µM, 7x7, partner max 10 µM) | 0.133 |

###

System: GAMG (Glioblastoma)
EXPERIMENT NOTES: Bliss excess, mean over the matrix (fraction); higher = more synergy
Cut-off -0.02 on Bliss excess, inclusive. At or above means true; below means false.

| MOLECULE | CATEGORY LABEL |
| --- | --- |
| Cn1cnc2c(F)c(Nc3ccc(Br)cc3Cl)c(C(=O)NOCCO)cc21 [Selumetinib] + CC(C)n1c(=O)n(C)c2cnc3cc(F)c(-c4ccc(OCCCN5CCCCC5)nc4)cc3c21 [AZD1390] (first compound max 10 µM, 7x7, partner max 0.3 µM) | false |
| CCN(CCO)CCCOc1ccc2c(Nc3cc(CC(=O)Nc4cccc(F)c4)[nH]n3)ncnc2c1 [AZD2811] + C=CCn1c(=O)c2cnc(Nc3ccc(N4CCN(C)CC4)cc3)nc2n1-c1cccc(C(C)(C)O)n1 [AZD1775] (first compound max 1 µM, partner max 1 µM) | true |
| COc1nnc2ccc(N3CCC(c4ccc(OCCN5CCN(C)C(=O)[C@H]5C)cc4)CC3)nn12 [AZD5153] + C=CCn1c(=O)c2cnc(Nc3ccc(N4CCN(C)CC4)cc3)nc2n1-c1cccc(C(C)(C)O)n1 [AZD1775] (first compound max 1 µM, partner max 1 µM) | false |
| CCN(CCO)CCCOc1ccc2c(Nc3cc(CC(=O)Nc4cccc(F)c4)[nH]n3)ncnc2c1 [AZD2811] + C[C@@H]1COCCN1C2=NC(=NC(=C2)C3(CC3)[S@](=N)(=O)C)C4=C5C=CNC5=NC=C4 [AZD6738] (first compound max 1 µM, 7x7, partner max 10 µM) | false |
| C[C@@H](Nc1cc(F)cc(F)c1)c1cc(C(=O)N(C)C)cc2c(=O)cc(N3CCOCC3)oc12 [AZD8186] + CC(=O)c1c(C)c2cnc(Nc3ccc(N4CCNCC4)cn3)nc2n(C2CCCC2)c1=O [Palbociclib] (first compound max 10 µM, 7x7, partner max 10 µM) | true |
| COc1nnc2ccc(N3CCC(c4ccc(OCCN5CCN(C)C(=O)[C@H]5C)cc4)CC3)nn12 [AZD5153] + Cc1c2c(nn1C)CSCc1cc(n(C)n1)CSc1cc(c3ccccc3c1)OCCCc1c(C(=O)O)n(C)c3c-2c(Cl)ccc13 [AZD5991] (first compound max 1 µM, 7x7, partner max 1 µM) | true |
| COc1cccc(OCCCN)c1-c1cc(Nc2cnc(C#N)cn2)n[nH]1 [Prexasertib] + CCc1c2c(nc3ccc(O)cc13)-c1cc3c(c(=O)n1C2)COC(=O)[C@]3(O)CC [SN-38] (first compound max 1 µM, 7x7, partner max 0.3 µM) | true |

###

Reported combination Emax values follow for various compounds
System: OE21 (Esophageal Squamous Cell Carcinoma)
EXPERIMENT NOTES: combination Emax (second highest fraction inhibited in the dose matrix, 72 h); higher = more inhibition; extreme values may be limits of the assay

| COMPOUND | TEST TARGET | combination Emax |
| --- | --- | --- |
| COc1cccc(OCCCN)c1-c1cc(Nc2cnc(C#N)cn2)n[nH]1 [Prexasertib] + CCc1c2c(nc3ccc(O)cc13)-c1cc3c(c(=O)n1C2)COC(=O)[C@]3(O)CC [SN-38] (first compound max 1 µM, 7x7, partner max 0.3 µM) | OE21 (Esophageal Squamous Cell Carcinoma) | 0.813 |
| CC1(C)CCC(CN2CCN(c3ccc(C(=O)NS(=O)(=O)c4ccc(NCC5CCOCC5)c([N+](=O)[O-])c4)c(Oc4cnc5[nH]ccc5c4)c3)CC2)=C(c2ccc(Cl)cc2)C1 [Venetoclax] + COc1cc(Nc2ncc3c(n2)-c2ccc(Cl)cc2C(c2c(F)cccc2OC)=NC3)ccc1C(=O)O [Alisertib] (first compound max 1 µM, 7x7, partner max 10 µM) | OE21 (Esophageal Squamous Cell Carcinoma) | 0.382 |
